Tested on: PPARa:RXRa (NR concentration 270 nM, RXRa partner concentration 90 nM)
Assay: PBM binding z-score (relative to random genomic background probes); higher = stronger binding; sequences stand for … in GC…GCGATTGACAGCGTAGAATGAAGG
Measured Quantity: PBM binding z-score
Format: numeric value only, no unit, no commentary.

Example results:
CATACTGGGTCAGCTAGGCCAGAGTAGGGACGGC ... 2.16
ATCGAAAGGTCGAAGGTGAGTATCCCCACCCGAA ... 4.42
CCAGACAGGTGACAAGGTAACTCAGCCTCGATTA ... 0.6
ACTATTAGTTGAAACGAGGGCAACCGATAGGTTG ... 1.14

Now for a further sequence.
Q) # get_value(readout= PBM binding z-score, system= PPARa:RXRa (NR concentration 270 nM, RXRa partner concentration 90 nM)) for `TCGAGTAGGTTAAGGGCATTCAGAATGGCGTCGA`
A) 1.75
